system: lambsquarters (Chenopodium album, CHEAL); assay: Post-emerge greenhouse herbicide test, phytotoxicity rating; assay type: in vivo; details: rate 500 g ai/ha, 14 days after application, scale 0-100
Parameter: phytotoxicity rating CHEAL. Scope: all listed entries.

Answered cases to consult:
[
  {
    "chem_smiles": "N#Cc1cccnc1Oc1cc(-n2c(=O)n3n(c2=S)CCCC3)c(F)cc1Cl",
    "endpoint": "phytotoxicity rating CHEAL",
    "reported_value": 100
  },
  {
    "chem_smiles": "Nn1c(C(F)(F)F)cc(=O)n(-c2cc(Oc3cccc(F)n3)c(Cl)cc2F)c1=O",
    "endpoint": "phytotoxicity rating CHEAL",
    "reported_value": 100
  }
]

Could you now consider this next compound?
# input Output measured phytotoxicity rating CHEAL for this item: "O=c1n(-c2cc(Oc3nccc(Cl)n3)c(Cl)cc2F)c(=S)n2n1CCCC2"
# output 95

----------
test system: upland rice (Oryza sp., var.Tebonnet, RICE); test: Post-emerge greenhouse test, crop damage rating; assay type: in vivo; conditions: rate 63 g ai/ha, 14 days after application, scale 0-100
endpoint: crop damage rating RICE
API note: the answer field is a bare number with no unit suffix.

Answered cases to consult:
[
  {
    "compound": "CCOC(=O)C(C)Oc1ccc(Oc2cc(-n3c(=O)n4n(c3=S)CCCC4)c(F)cc2Cl)c([N+](=O)[O-])c1 (stereo not shown)",
    "test_system": "upland rice (Oryza sp., var.Tebonnet, RICE)",
    "crop damage rating RICE": 15
  },
  {
    "compound": "O=c1n(-c2cc(Oc3nccc(Cl)n3)c(Cl)cc2F)c(=S)n2n1CCCC2",
    "test_system": "upland rice (Oryza sp., var.Tebonnet, RICE)",
    "crop damage rating RICE": 0
  },
  {
    "compound": "O=c1n(-c2cc(Oc3ncccc3[N+](=O)[O-])c(Cl)cc2F)c(=S)n2n1CCCC2",
    "test_system": "upland rice (Oryza sp., var.Tebonnet, RICE)",
    "crop damage rating RICE": 40
  },
  {
    "compound": "COc1cc(OC)nc(Oc2cc(-n3c(=O)n4n(c3=S)CCCC4)c(F)cc2Cl)n1",
    "test_system": "upland rice (Oryza sp., var.Tebonnet, RICE)",
    "crop damage rating RICE": 0
  }
]

# input Output measured crop damage rating RICE for this item: "CS(=O)(=O)c1cccnc1Oc1cc(-n2c(=O)n3n(c2=S)CCCC3)c(F)cc1Cl"
# output 50

# input Output measured crop damage rating RICE for this item: "O=c1n(-c2cc(Oc3ccc([N+](=O)[O-])cn3)c(Cl)cc2F)c(=S)n2n1CCCC2"
# output 0

# input Output measured crop damage rating RICE for this item: "Cc1nsc(Oc2cc(-n3c(=O)n4n(c3=S)CCCC4)c(F)cc2Cl)c1[N+](=O)[O-]"
# output 20

----------
test system: upland rice (Oryza sp., var.Tebonnet, RICE); assay: Post-emerge greenhouse test, crop damage rating; assay type: in vivo; conditions: 63 g al/ha, 14 days after application
Parameter: RICE crop damage rating (0-100). Scope: all listed entries.

Answered cases to consult:
[
  {
    "chem_smiles": "N#Cc1cccnc1Oc1cc(-n2nnn(CCCF)c2=O)c(F)cc1Cl",
    "RICE crop damage rating (0-100)": 20
  },
  {
    "chem_smiles": "O=c1n(-c2cc(Oc3ccccc3[N+](=O)[O-])c(Cl)cc2F)c(=S)n2n1CCCC2",
    "RICE crop damage rating (0-100)": 5
  },
  {
    "chem_smiles": "Cn1c(C(F)(F)F)nc(-c2cc(Oc3ncccn3)c(Cl)cc2F)c1Cl",
    "RICE crop damage rating (0-100)": 40
  }
]

# input Output measured RICE crop damage rating (0-100) for this item: "O=c1n(CCCF)nnn1-c1cc(Oc2ncccc2[N+](=O)[O-])c(Cl)cc1Cl"
# output 0
